Value source: patent US20070281992A1

# Tested on: Methicillin-Resistant Staphylococcus aureus Isolates
# measurementNotes: MIC assay (NCCLS broth dilution), MRSA clinical isolates
# Format: cell-based
# setupConditions: Staphylococcus aureus, MRSA isolate 1730, 24FEB06; read-out: Minimal Inhibitory Concentration
MIC listing for selected compounds.
// return numeric value only (unit: µg/mL, not printed)

> print(dat)
                                smilesentry                           systemundertest  measuredendpoint  outputunit  measurednumber
1  CC(=O)NC[C@H]1CN(c2ccc(N3CCOCC3)c(F)c2)C(=O)O1  Methicillin-Resistant Staphylococcus aureus Isolates               MIC       µg/mL               4
2  CO[C@@H]1[C@@H](OC(N)=O)[C@@H](O)[C@H](Oc2ccc3c(O)c(NC(=O)c4ccc(O)c(CC=C(C)C)c4)c(=O)oc3c2C)OC1(C)C  Methicillin-Resistant Staphylococcus aureus Isolates               MIC       µg/mL            0.15
3  Cc1onc(-c2ccccc2)c1C(=O)N[C@@H]1C(=O)N2[C@@H]1SC(C)(C)[C@@H]2C(=O)O  Methicillin-Resistant Staphylococcus aureus Isolates               MIC       µg/mL              32
4  CN(C)[C@@H]1C(O)=C(C(N)=O)C(=O)[C@@]2(O)C(O)=C3C(=O)c4c(O)cccc4[C@@](C)(O)[C@H]3C[C@@H]12  Methicillin-Resistant Staphylococcus aureus Isolates               MIC       µg/mL             0.5

--- query ---
Documented MIC of `CN(C)c1ccc(O)c2c1C[C@H]1C[C@H]3[C@H](N(C)C)C(O)=C(C(N)=O)C(=O)[C@@]3(O)C(O)=C1C2=O` : 0.12

* * *

MIC listing for selected molecules.
# System: Methicillin-Resistant Staphylococcus aureus Isolates
# measurementNotes: MIC assay (NCCLS broth dilution), MRSA clinical isolates
# Assay type: cell-based
# setupConditions: Staphylococcus aureus, MRSA isolate 767, 22FEB06; read-out: Minimal Inhibitory Concentration
// return numeric value only (unit: µg/mL, not printed)

Documented MIC of `CN(C)[C@@H]1C(O)=C(C(N)=O)C(=O)[C@@]2(O)C(O)=C3C(=O)c4c(O)cccc4[C@@](C)(O)[C@H]3C[C@@H]12` : 0.5

* * *

# Test system: Methicillin-Susceptible Staphylococcus aureus Isolates
# measurementNotes: MIC assay (NCCLS broth dilution), MSSA clinical isolates
# Type: cell-based
# setupConditions: Staphylococcus aureus, MSSA isolate 756, 03MAR06; read-out: Minimal Inhibitory Concentration
MIC listing for selected molecules.
// return numeric value only (unit: µg/mL, not printed)

> print(dat)
                                   molecule  measuredendpoint  measurednumber
1  CN(C)[C@@H]1C(O)=C(C(N)=O)C(=O)[C@@]2(O)C(O)=C3C(=O)c4c(O)cccc4[C@@](C)(O)[C@H]3C[C@@H]12 [TE, tetracycline]               MIC             0.5

Documented MIC of CC(=O)NC[C@H]1CN(c2ccc(N3CCOCC3)c(F)c2)C(=O)O1 [LZD, linezolid] : 2

Documented MIC of CO[C@@H]1[C@@H](OC(N)=O)[C@@H](O)[C@H](Oc2ccc3c(O)c(NC(=O)c4ccc(O)c(CC=C(C)C)c4)c(=O)oc3c2C)OC1(C)C [NB, novobiocin] : 0.15

Documented MIC of CN(C)c1ccc(O)c2c1C[C@H]1C[C@H]3[C@H](N(C)C)C(O)=C(C(N)=O)C(=O)[C@@]3(O)C(O)=C1C2=O [MI, minocycline] : 0.06

Documented MIC of Cc1onc(-c2ccccc2)c1C(=O)N[C@@H]1C(=O)N2[C@@H]1SC(C)(C)[C@@H]2C(=O)O [OX, oxacillin] : 0.25

* * *

# System: Methicillin-Resistant Staphylococcus aureus Isolates
# measurementNotes: MIC assay (NCCLS broth dilution), MRSA clinical isolates
# Type: cell-based
# setupConditions: Staphylococcus aureus, MRSA isolate 1021, 22FEB06; read-out: Minimal Inhibitory Concentration
MIC listing for selected compounds.
// return numeric value only (unit: µg/mL, not printed)

# annotated cases, reported MIC shown
> print(dat)
                                smilesentry  measuredendpoint  measurednumber
1  CN(C)c1ccc(O)c2c1C[C@H]1C[C@H]3[C@H](N(C)C)C(O)=C(C(N)=O)C(=O)[C@@]3(O)C(O)=C1C2=O               MIC            0.12
2  CN(C)[C@@H]1C(O)=C(C(N)=O)C(=O)[C@@]2(O)C(O)=C3C(=O)c4c(O)cccc4[C@@](C)(O)[C@H]3C[C@@H]12               MIC             0.5
3  Cc1onc(-c2ccccc2)c1C(=O)N[C@@H]1C(=O)N2[C@@H]1SC(C)(C)[C@@H]2C(=O)O               MIC              32
4  CC(=O)NC[C@H]1CN(c2ccc(N3CCOCC3)c(F)c2)C(=O)O1               MIC               2

--- query ---
Documented MIC of `CO[C@@H]1[C@@H](OC(N)=O)[C@@H](O)[C@H](Oc2ccc3c(O)c(NC(=O)c4ccc(O)c(CC=C(C)C)c4)c(=O)oc3c2C)OC1(C)C` : 0.15

* * *

MIC listing for selected compounds.
# Test system: Unconfirmed Vancomycin-intermediate Staphylococcus aureus Isolates
# measurementNotes: MIC assay (NCCLS broth dilution), unconfirmed VISA isolates
# Assay type: cell-based
# setupConditions: Staphylococcus aureus, Unconfirmed VISA isolate 2017, 03MAR06; read-out: Minimal Inhibitory Concentration
// return numeric value only (unit: µg/mL, not printed)

# annotated cases, reported MIC shown
> print(dat)
                                smilesentry  outputunit  measurednumber
1  Cc1onc(-c2ccccc2)c1C(=O)N[C@@H]1C(=O)N2[C@@H]1SC(C)(C)[C@@H]2C(=O)O       µg/mL            0.25
2  CN(C)c1ccc(O)c2c1C[C@H]1C[C@H]3[C@H](N(C)C)C(O)=C(C(N)=O)C(=O)[C@@]3(O)C(O)=C1C2=O       µg/mL            0.03
3  CN(C)[C@@H]1C(O)=C(C(N)=O)C(=O)[C@@]2(O)C(O)=C3C(=O)c4c(O)cccc4[C@@](C)(O)[C@H]3C[C@@H]12       µg/mL            0.25
4  CO[C@@H]1[C@@H](OC(N)=O)[C@@H](O)[C@H](Oc2ccc3c(O)c(NC(=O)c4ccc(O)c(CC=C(C)C)c4)c(=O)oc3c2C)OC1(C)C       µg/mL            0.15

--- query ---
Documented MIC of `CC(=O)NC[C@H]1CN(c2ccc(N3CCOCC3)c(F)c2)C(=O)O1` : 2

* * *

# Tested on: Methicillin-Resistant Staphylococcus aureus Isolates
# measurementNotes: MIC assay (NCCLS broth dilution), MRSA clinical isolates
# Assay type: cell-based
# setupConditions: Staphylococcus aureus, MRSA isolate 2009, 24FEB06; read-out: Minimal Inhibitory Concentration
MIC listing for selected molecules.
// return numeric value only (unit: µg/mL, not printed)

> print(dat)
                                smilesentry  outputunit  measurednumber
1  CN(C)c1ccc(O)c2c1C[C@H]1C[C@H]3[C@H](N(C)C)C(O)=C(C(N)=O)C(=O)[C@@]3(O)C(O)=C1C2=O       µg/mL               1

--- query ---
Documented MIC of `CC(=O)NC[C@H]1CN(c2ccc(N3CCOCC3)c(F)c2)C(=O)O1` : 2

* * *

# Tested on: Methicillin-Resistant Staphylococcus aureus Isolates
# measurementNotes: MIC assay (NCCLS broth dilution), MRSA clinical isolates
# Type: cell-based
# setupConditions: Staphylococcus aureus, MRSA isolate 1135, 22FEB06; read-out: Minimal Inhibitory Concentration
MIC listing for selected compounds.

# annotated cases, reported MIC shown
> print(dat)
                                   compound                           systemundertest  measuredendpoint      result
1  CN(C)c1ccc(O)c2c1C[C@H]1C[C@H]3[C@H](N(C)C)C(O)=C(C(N)=O)C(=O)[C@@]3(O)C(O)=C1C2=O [MI, minocycline]  Methicillin-Resistant Staphylococcus aureus Isolates               MIC  0.12 µg/mL
2  CO[C@@H]1[C@@H](OC(N)=O)[C@@H](O)[C@H](Oc2ccc3c(O)c(NC(=O)c4ccc(O)c(CC=C(C)C)c4)c(=O)oc3c2C)OC1(C)C [NB, novobiocin]  Methicillin-Resistant Staphylococcus aureus Isolates               MIC  0.31 µg/mL

Documented MIC of CC(=O)NC[C@H]1CN(c2ccc(N3CCOCC3)c(F)c2)C(=O)O1 [LZD, linezolid] : 2 µg/mL

Documented MIC of Cc1onc(-c2ccccc2)c1C(=O)N[C@@H]1C(=O)N2[C@@H]1SC(C)(C)[C@@H]2C(=O)O [OX, oxacillin] : 32 µg/mL

Documented MIC of CN(C)[C@@H]1C(O)=C(C(N)=O)C(=O)[C@@]2(O)C(O)=C3C(=O)c4c(O)cccc4[C@@](C)(O)[C@H]3C[C@@H]12 [TE, tetracycline] : 0.5 µg/mL
